Biological target: Human GLP-1 receptor stably expressing cells (hGLP-1R/CHO-K1 cells) (Homo sapiens, UniProt P43220)
Construct: expressed in transfected cells
Sequence (P43220 24-463): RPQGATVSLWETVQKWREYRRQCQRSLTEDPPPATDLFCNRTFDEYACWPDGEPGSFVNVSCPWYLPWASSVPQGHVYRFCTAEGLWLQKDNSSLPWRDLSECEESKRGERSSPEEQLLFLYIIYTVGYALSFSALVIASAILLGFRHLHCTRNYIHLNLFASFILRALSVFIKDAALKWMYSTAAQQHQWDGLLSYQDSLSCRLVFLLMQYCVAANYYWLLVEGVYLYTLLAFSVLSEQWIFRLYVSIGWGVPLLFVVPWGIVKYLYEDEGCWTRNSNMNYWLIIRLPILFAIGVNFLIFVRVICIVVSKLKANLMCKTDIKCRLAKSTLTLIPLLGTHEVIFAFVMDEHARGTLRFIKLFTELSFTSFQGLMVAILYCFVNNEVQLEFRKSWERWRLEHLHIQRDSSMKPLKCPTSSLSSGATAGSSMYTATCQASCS
Assay: Measurement of GLP-1 receptor agonist activity (cAMP assay)
Assay type: cell-based
Settings: CHO-K1, maximum effect; cAMP with 2 nM human GLP-1 (7-36) = 100%, DMSO only = 0%; read-out: Emax
property-measured: Emax (%)
Give just the numeric value; % need not be written.

>>> value("C[C@H]1c2nc(OCc3ccc(Cl)cc3F)ncc2CCN1Cc1nc2ccc(C(=O)O)cc2n1C[C@@H]1CCO1")
88.3
>>> value("COc1cc(Cl)ccc1COc1nc2c(cc1C(F)F)CCN(Cc1nc3ccc(C(=O)O)cc3n1C[C@@H]1CCO1)[C@H]2C")
121
>>> value("Cc1noc(COc2nc3c(cc2C(F)(F)F)CCN(Cc2nc4ccc(C(=O)O)cc4n2C[C@@H]2CCO2)[C@H]3C)n1")
88
>>> value("C[C@H]1c2nc(NCc3c(F)cc(Cl)cc3F)c(C(F)(F)F)cc2CCN1Cc1nc2c(F)cc(C(=O)O)cc2n1C[C@@H]1CCO1")
99.7
>>> value("C[C@H]1c2c(cc(C(F)(F)F)c3c2OC(C)(c2ccc(Cl)cc2F)O3)CCN1Cc1nc2ccc(C(=O)O)cc2n1C[C@@H]1CCO1 (mixture of isomers)")
93.3

[ask] Requested field: Emax. Item: COc1cc(C(=O)O)cc2c1nc(CN1CCc3cc(Cl)c(OCc4ccc(C)cc4)nc3[C@@H]1C)n2C[C@@H]1CCO1
[reply] 98.3

###

Target: Human GLP-1 receptor stably expressing cells (hGLP-1R/CHO-K1 cells) (Homo sapiens)
Construct: expressed in transfected cells
Assay: Measurement of GLP-1 receptor agonist activity (cAMP assay)
Type: cell-based
Conditions: increase in cAMP concentration in hGLP-1R/CHO-K1 cells, 37° C. 1 hour
property-measured: pEC50
// pEC50 is dimensionless: -log10 of concentration (M)

>>> value("COc1cc(C(=O)O)cc2c1nc(CN1CCc3cc(C(F)(F)F)c(NCc4c(F)cc(Cl)cc4F)nc3[C@@H]1C)n2C[C@@H]1CCO1 [Compound I-171]")
10.82
>>> value("COc1cc(C(=O)O)cc2c1nc(CN1CCc3cc(C(F)F)c(OCc4ccc(F)cc4F)nc3[C@@H]1C)n2C[C@@H]1CCO1 [Compound I-131]")
10.52
>>> value("C[C@H]1c2nc(OCc3ccc(Cl)cc3F)c(C(F)F)cc2CCN1Cc1nc2ccc(C(=O)O)nc2n1C[C@@H]1CCO1 [Compound I-097]")
9.46

Consider now this further compound.
[ask] Requested field: pEC50. Item: C[C@H]1c2nc(OCc3c(F)cc(F)cc3F)c(C(F)F)cc2CCN1Cc1nc2ccc(C(=O)O)c(F)c2n1C[C@@H]1CCO1 [Compound I-125]
[reply] 10.07

###

Target: Human GLP-1 receptor stably expressing cells (hGLP-1R/CHO-K1 cells) (Homo sapiens, UniProt P43220)
Construct: expressed in transfected cells
Experiment: Measurement of GLP-1 receptor agonist activity (cAMP assay)
Format: cell-based
Settings: CHO-K1, maximum effect; cAMP with 2 nM human GLP-1 (7-36) = 100%, DMSO only = 0%; read-out: Emax
property-measured: Emax (%)
Give just the numeric value; % need not be written.

The cases that follow already have their Emax on record.
>>> value("C[C@H]1c2c(cc(C(F)(F)F)c3c2O[C@@](C)(c2ccc(Cl)cn2)O3)CCN1Cc1nc2c(Cl)cc(C(=O)O)cc2n1C[C@@H]1CCO1")
111
>>> value("C[C@H]1c2nc(OCc3ccc(F)cc3Cl)c(C#N)cc2CCN1Cc1nc2c(Cl)cc(C(=O)O)cc2n1C[C@@H]1CCO1")
119

[ask] Requested field: Emax. Item: C[C@H]1c2nc(OCc3ccc(Cl)cc3F)c(C#N)cc2CCN1Cc1nc2c(Cl)cc(C(=O)O)cc2n1C[C@@H]1CCO1
[reply] 118
